Procedure Summary: endothelial E-selectin expression blockers – imaging, HUVEC, immunofluorescence, MLSMR starter and 10KST1 sets, primary screen (AID 487);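 note: signal is fraction of cell area covered by stained E-selectin grains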
Settings: HUVEC TNFalpha-induced E-selectin immunofluorescence imaging, at 2 µM; active compounds read high
Assay Readout: inhibition (%)
One number for each entry, in %.

Known inhibition results, listed for orientation:
>>> df
                                   compound  experimental_result
0  CN(C1CCCCC1)S(=O)(=O)c1ccc(S(=O)(=O)N2CCCC2)cc1                -78.3
1  CCN1CCN(C(=O)c2cn(CC)c3ccc(S(=O)(=O)N(C)C)cc3c2=O)CC1                  -30
2  COCCn1c(Sc2nc(C)cs2)nc2c1c(=O)[nH]c(=O)n2C                -78.3

Exam item: Give the measured inhibition of COc1ccc(C(O)Cn2c(=N)n(CCCN(C)C)c3ccccc32)cc1 (centres undefined) .
Marked response: -30.3

----------
Kindly supply the reported inhibition of aggregation values for the records listed here.
Procedure Summary: reduction of polyQ htt aggregates in cells – imaging, exon1htt(103Q)mCFP cells, high-content imaging, primary screen (AID 483);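 note: compound exposure lasted 3 days before fixation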
Settings: exon1htt(103Q)mCFP cell line, aggregate imaging, at 2 µM; active compounds read high
Answers are plain numbers, in %.

# example entries with known answers
>>> df
                           molecular_string              assay_readout  experimental_result
0  Cc1ccc2occ(CN3CCN(c4ccccc4)CC3)c(=O)c2c1  inhibition of aggregation                 14.3
1               C/C(NC1CCCC1)=C(/C#N)C(N)=O  inhibition of aggregation                 -0.6

Moving on to another molecule below.
Exam item: Consider the molecule "CC(C)C(=O)Nc1ccc(-c2nc3cccnc3o2)cc1" and give its measured inhibition of aggregation.
Marked response: 12.8

----------
Procedure Summary: TLR3 IRF3 reporter activation blockers – cell-based, poly I:C stimulus, luciferase, 10K MLSCN set, primary screen (AID 602277)
Settings: HEK293-TLR3 RL24 IRF3 luciferase reporter, at 10 µM, active compounds read high
Assay Readout: inhibition (%)
One number for each entry, in %.

                                   molecule  assay_readout  experimental_result
0  CCC(=O)N1CCc2cc(S(=O)(=O)CCC(=O)Nc3ccc(C)c(F)c3)ccc21     inhibition                 14.5

Below is a list of molecules. For each, state its recorded inhibition.
1. CCOC(=O)C1C(=O)NC(SCC(=O)Nc2nccs2)=C(C#N)C1c1ccccc1OCC (stereo not drawn)
2. COc1ccc(Cc2nn3c(-c4cc(OC)c(OC)c(OC)c4)nnc3s2)cc1

Marked response:
[20.1, -1.58]

----------
Procedure Summary: TLR3 IRF3 reporter activation blockers – cell-based, poly I:C stimulus, luciferase, 10K MLSCN set, primary screen (AID 602277)
Settings: HEK293-TLR3 RL24 IRF3 luciferase reporter, at 10 µM
Active and inactive are the calls of the source.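 How the source made its calls: active means inhibition of the reporter signal at or above 50%; inactive means inhibition below 50%.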
Answer with one of the outcomes given here: active, inactive

Reference set, count: 8
                                   compound     class
0  O=C(c1cnc2n(c1=O)CCS2)N(C1CCCCC1)C1CCCCC1  inactive
1  COc1ccc(C)cc1NC(=O)c1nnn(Cc2cccc(F)c2)c1N  inactive
2  O=C(Nc1ccc(CN2CCOCC2)cc1)c1cc2ccccc2oc1=O  inactive
3  CN(C)S(=O)(=O)c1ccc(S(=O)(=O)N(Cc2ccco2)Cc2ccccc2Cl)cc1    active
4  CCOC(=O)N1CCC2(CC1)CC(=O)c1c(ccc3oc(C(=O)O)c(C)c13)O2  inactive
5  COc1ccc(N2CCN(CCNS(=O)(=O)c3cccc4nsnc34)CC2)cc1  inactive
6  COc1ccc(C(=O)c2coc3ccc(O)c(CN4CCCCC4)c23)cc1  inactive
7  CCC(=O)Nc1cc(C(=O)NCC2CCCN2CC)c(OC)cc1N(C)C (stereo not drawn)  inactive

Exam item: Lab log entry: "CS(=O)(=O)NCc1nnc(SCC(=O)NC2CCCCC2)n1-c1ccc(F)cc1" — outcome as called in the assay?
Marked response: inactive

Exam item: Hey, what did the test say about O=C(c1cnn2c(C(F)F)cc(-c3ccccc3)nc12)N1CCN2CCCC2C1 (stereo not drawn) ?
Marked response: inactive

Exam item: Identify the outcome logged in this assay for the compound shown: CC1(C)CC(=O)C2=C(C1)Nc1nc(SCCN3CCOCC3)[nH]c(=O)c1C2c1cccs1 (stereo not drawn)
Marked response: inactive

Origin of values: PubChem BioAssay
